- TARGET UNDER TEST: human B2R (Homo sapiens, UniProt P30411)
- Construct: expressed in transfected cells; host or cells: QBI HEK 293A cells, lentiviral transduction with pCDH-BDKRB2, puromycin selection
- METHOD SUMMARY: Radioligand displacement binding assay, [3H]BK, human B2R-HEK293 cells
- SETTINGS: displacement of 1 nM [3H]BK, living adherent HEK293 cells stably expressing human B2R, serum-free DMEM, 1.5 h, 4 °C; mean of two independent experiments performed in duplicates
Non-standard residues stand in square brackets, D forms with d. Residues, ends and D or L forms follow the SMILES beside them. *: point of attachment. X1 = COc1ccc(C[C@@H](CN[C@@H](CCCNC(=N)N)C(=O)O)N*)cc1; Hyp = O=C(O)[C@@H]1C[C@@H](O)CN1; 2Thi = N[C@@H](Cc1cccs1)C(=O)O; Gly(N-cHex) = O=C(O)CNC1CCCCC1
Quick reference for IC50 among some compounds
Kindly provide the numeric value in nM only, without the unit symbol.

Known results for compounds:
[[record]]
compound = "COc1ccc(C[C@@H](CN[C@@H](CCCNC(=N)N)C(=O)O)NC(=O)[C@@H]2CCCN2C(=O)[C@H](CO)NC(=O)[C@H](Cc2cccs2)NC(=O)CNC(=O)[C@@H]2C[C@@H](O)CN2C(=O)[C@@H]2CCCN2C(=O)[C@@H](N)CCCNC(=N)N)cc1 [Labradimil] (H-RP[Hyp]G[2Thi]SP-X1)"
target_under_test = "human B2R (Homo sapiens, UniProt P30411)"
data_value = 17

[[record]]
compound = "N=C(N)NCCC[C@@H](N)C(=O)N[C@@H](CCCNC(=N)N)C(=O)N1CCC[C@H]1C(=O)N1C[C@H](O)C[C@H]1C(=O)NCC(=O)N[C@H](C(=O)N[C@@H](CO)C(=O)N1[C@H](C(=O)N[C@H](C(=O)N[C@@H](CCCNC(=N)N)C(=O)O)C2Cc3ccccc3C2)C[C@@H]2CCCC[C@@H]21)C1Cc2ccccc2C1 [B9972, DArg[Hyp^3, Igl^5, Oic^7, Igl^8]-BK]"
target_under_test = "human B2R (Homo sapiens, UniProt P30411)"
data_value = 199


Moving on to another compound below.
So, N=C(N)NCCC[C@H](NC(=O)[C@H](Cc1cccs1)NC(=O)CN(C(=O)[C@H](CO)NC(=O)[C@H](Cc1cccs1)NC(=O)CNC(=O)[C@@H]1C[C@@H](O)CN1C(=O)[C@@H]1CCCN1C(=O)[C@@H](N)CCCNC(=N)N)C1CCCCC1)C(=O)O [NG291, [Hyp^3, Thi^5, ^NChg^7, Thi^8]-BK] (H-RP[Hyp]G[2Thi]S[Gly(N-cHex)][2Thi]R-OH) ? Its IC50 was 3

---

- TARGET UNDER TEST: human B2R (Homo sapiens, UniProt P30411)
- Construct: expressed in transfected cells; host or cells: QBI HEK 293A cells, lentiviral transduction with pCDH-BDKRB2, puromycin selection
- METHOD SUMMARY: IP-One accumulation assay, human B2R-HEK293 cells
- Assay type: cell-based
- SETTINGS: IP1 accumulation, 30 min, room temperature, pH 7.4, 50 mM LiCl, human B2R-HEK293, 15,000 cells per well; mean of two independent experiments performed in duplicates; read-out: IP1 Assays (EC50; nM)
ASSAY ENDPOINT: EC50 (nM)
Kindly provide the numeric value in nM only, without the unit symbol.

GET /values?item= N=C(N)NCCC[C@@H](N)C(=O)N[C@@H](CCCNC(=N)N)C(=O)N1CCC[C@H]1C(=O)N1C[C@H](O)C[C@H]1C(=O)NCC(=O)N[C@H](C(=O)N[C@@H](CO)C(=O)N1[C@H](C(=O)N[C@H](C(=O)N[C@@H](CCCNC(=N)N)C(=O)O)C2Cc3ccccc3C2)C[C@@H]2CCCC[C@@H]21)C1Cc2ccccc2C1 [B9972, DArg[Hyp^3, Igl^5, Oic^7, Igl^8]-BK] &system= human B2R (Homo sapiens, UniProt P30411) returns EC50: 158

---

Quick reference for EC50 among some compounds
- TARGET UNDER TEST: human B2R (Homo sapiens, UniProt P30411)
- Construct: expressed in transfected cells; host or cells: QBI HEK 293A cells, lentiviral transduction with pCDH-BDKRB2, puromycin selection
- Sequence (P30411 1-391): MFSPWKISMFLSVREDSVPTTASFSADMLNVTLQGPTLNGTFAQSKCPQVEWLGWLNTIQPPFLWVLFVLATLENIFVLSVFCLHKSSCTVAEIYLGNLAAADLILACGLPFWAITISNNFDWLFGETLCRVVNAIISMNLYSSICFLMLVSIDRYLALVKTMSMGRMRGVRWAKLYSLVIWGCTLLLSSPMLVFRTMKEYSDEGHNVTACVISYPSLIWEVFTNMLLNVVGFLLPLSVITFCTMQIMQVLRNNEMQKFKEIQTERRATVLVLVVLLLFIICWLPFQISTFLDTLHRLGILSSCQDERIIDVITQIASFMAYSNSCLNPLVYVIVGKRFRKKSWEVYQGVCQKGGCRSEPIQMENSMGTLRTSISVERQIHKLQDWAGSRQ
- METHOD SUMMARY: IP-One accumulation assay, human B2R-HEK293 cells
- Type: cell-based
- SETTINGS: IP1 accumulation, 30 min, room temperature, pH 7.4, 50 mM LiCl, human B2R-HEK293, 15,000 cells per well; mean of two independent experiments performed in duplicates; read-out: IP1 Assays (EC50; nM)
Non-standard residues stand in square brackets, D forms with d. Residues, ends and D or L forms follow the SMILES beside them. *: point of attachment. X1 = COc1ccc(C[C@@H](CN[C@@H](CCCNC(=N)N)C(=O)O)N*)cc1; Hyp = O=C(O)[C@@H]1C[C@@H](O)CN1; 2Thi = N[C@@H](Cc1cccs1)C(=O)O; Gly(N-cHex) = O=C(O)CNC1CCCCC1

Known results for compounds:
[[record]]
compound = "COc1ccc(C[C@@H](CN[C@@H](CCCNC(=N)N)C(=O)O)NC(=O)[C@@H]2CCCN2C(=O)[C@H](CO)NC(=O)[C@H](Cc2cccs2)NC(=O)CNC(=O)[C@@H]2C[C@@H](O)CN2C(=O)[C@@H]2CCCN2C(=O)[C@@H](N)CCCNC(=N)N)cc1 [Labradimil] (H-RP[Hyp]G[2Thi]SP-X1)"
data_value = "47 nM"

[[record]]
compound = "N=C(N)NCCC[C@H](NC(=O)[C@H](Cc1cccs1)NC(=O)CN(C(=O)[C@H](CO)NC(=O)[C@H](Cc1cccs1)NC(=O)CNC(=O)[C@@H]1C[C@@H](O)CN1C(=O)[C@@H]1CCCN1C(=O)[C@@H](N)CCCNC(=N)N)C1CCCCC1)C(=O)O [NG291, [Hyp^3, Thi^5, ^NChg^7, Thi^8]-BK] (H-RP[Hyp]G[2Thi]S[Gly(N-cHex)][2Thi]R-OH)"
data_value = "0.9 nM"


Moving on to another compound below.
GET /values?item= N=C(N)NCCC[C@@H](N)C(=O)N[C@H](Cc1ccccc1)C(=O)N1CCC[C@@H]1C(=O)N[C@H](CO)C(=O)N[C@H](Cc1ccccc1)C(=O)NCC(=O)N1CCC[C@@H]1C(=O)N1CCC[C@@H]1C(=O)N[C@H](CCCNC(=N)N)C(=O)O [RI-BK, D(retroinverso)-BK] (H-[dR][dF][dP][dS][dF]G[dP][dP][dR]-OH; N-terminus and C-terminus assumed) &system= human B2R (Homo sapiens, UniProt P30411) returns EC50: > 10000 nM
